ASSAYED SYSTEM: various mutants of kinase EGFR (BaF3 cell lines stably transfected with kinase) (Homo sapiens, UniProt P00533, T790M, form not given)
Construct: other: BaF3 cells stably transfected with EGFR Δ19Del/T790M; MTS, 48 h; other: BaF3 cell line stably transfected with EGFR Δ19Del/T790M; MTS, 48
Sequence (P00533 with tags, fused parts or gaps DEL746-750/T790M, form open): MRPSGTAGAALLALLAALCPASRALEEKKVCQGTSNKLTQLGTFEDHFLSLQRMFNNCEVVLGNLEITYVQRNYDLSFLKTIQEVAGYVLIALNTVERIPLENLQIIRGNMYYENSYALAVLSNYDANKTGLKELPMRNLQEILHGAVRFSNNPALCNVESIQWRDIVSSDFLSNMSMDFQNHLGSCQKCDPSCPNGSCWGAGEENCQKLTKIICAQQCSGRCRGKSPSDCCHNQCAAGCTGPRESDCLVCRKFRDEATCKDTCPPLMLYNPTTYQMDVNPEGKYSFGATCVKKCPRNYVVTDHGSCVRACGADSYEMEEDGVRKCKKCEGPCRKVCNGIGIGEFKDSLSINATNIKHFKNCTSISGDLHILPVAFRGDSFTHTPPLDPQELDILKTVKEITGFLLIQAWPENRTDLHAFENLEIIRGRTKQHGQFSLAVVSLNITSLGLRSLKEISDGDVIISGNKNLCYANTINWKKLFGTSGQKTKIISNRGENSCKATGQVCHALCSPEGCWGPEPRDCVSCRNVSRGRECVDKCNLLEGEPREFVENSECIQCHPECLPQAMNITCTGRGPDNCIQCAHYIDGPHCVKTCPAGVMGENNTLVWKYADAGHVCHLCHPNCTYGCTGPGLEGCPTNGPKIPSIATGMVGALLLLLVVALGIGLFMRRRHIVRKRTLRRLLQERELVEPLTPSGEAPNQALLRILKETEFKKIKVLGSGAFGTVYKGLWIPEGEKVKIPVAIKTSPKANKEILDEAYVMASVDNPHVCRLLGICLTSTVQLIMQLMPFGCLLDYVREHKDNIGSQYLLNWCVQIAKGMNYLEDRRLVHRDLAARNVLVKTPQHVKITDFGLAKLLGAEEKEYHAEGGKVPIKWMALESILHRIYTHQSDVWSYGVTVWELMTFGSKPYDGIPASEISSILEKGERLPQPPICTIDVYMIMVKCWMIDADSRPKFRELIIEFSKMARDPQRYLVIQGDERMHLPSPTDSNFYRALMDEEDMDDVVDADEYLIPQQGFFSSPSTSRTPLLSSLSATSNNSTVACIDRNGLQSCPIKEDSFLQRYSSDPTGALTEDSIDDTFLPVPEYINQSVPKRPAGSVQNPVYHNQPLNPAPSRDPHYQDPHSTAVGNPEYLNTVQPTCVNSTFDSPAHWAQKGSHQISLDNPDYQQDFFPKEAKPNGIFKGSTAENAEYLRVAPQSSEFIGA
ASSAY INFO: Growth inhibitory activity of compounds on BaF3 cell lines stably transfected with kinase (MTS, 48 h)
Format: cell-based
TEST SETTINGS: BaF3 cells stably transfected with EGFR Δ19Del/T790M, read-out: IC50, growth inhibition, Δ19Del/T790M
Recorded IC50 by entry

>>> recorded_result("CCS(=O)(=O)N(C)c1c(Nc2nc(Nc3cc(C)c(N4CCC(N5CCN(C)CC5)CC4)cc3OC)ncc2Cl)ccc2nccnc12")
"≤ 0.05 µM"
>>> recorded_result("CCc1cc(Nc2ncc(Br)c(Nc3ccc4nccnc4c3N(C)S(=O)(=O)C(F)(F)F)n2)c(OC)cc1N1CCC(N(C)C)C1 (stereo not shown)")
"0.05 to 0.5 µM"
>>> recorded_result("CCc1cc(Nc2ncc(Cl)c(Nc3ccc4nccnc4c3N(C)S(=O)(=O)C(C)C)n2)c(OC)nc1N1CCC(N2CCN(C)CC2)CC1")
"≤ 0.05 µM"
>>> recorded_result("COc1cc(N2CCC(N3CCN(C)CC3)CC2)ccc1Nc1ncc(C#N)c(Nc2ccc3nccnc3c2N(C)S(C)(=O)=O)n1")
"0.5 to 2.5 µM"
>>> recorded_result("COc1cc(N2CCC(N3CCN(C)CC3)CC2)c(C)cc1Nc1ncc(Br)c(Nc2ccc3nccnc3c2N(C)S(C)(=O)=O)n1")
"≤ 0.05 µM"
>>> recorded_result("CCc1cc(Nc2ncc(Cl)c(Nc3ccc4nccnc4c3N(C3CC3)S(C)(=O)=O)n2)c(OC)cc1N1CCC(N(C)C)CC1")
"≤ 0.05 µM"

May I ask what IC50 has been recorded for "CN(c1c(Nc2nc(Nc3ccc(S(=O)(=O)NC4CC4)cc3)ncc2Br)ccc2nccnc12)S(C)(=O)=O" ?
0.05 to 0.5 µM

May I ask what IC50 has been recorded for CCc1cc(Nc2ncc(Br)c(Nc3ccc4nccnc4c3N(C3CC3)S(C)(=O)=O)n2)c(OC)cc1N1CCC(N(C)C)C1 (stereo not shown) ?
≤ 0.05 µM

May I ask what IC50 has been recorded for "COc1cc(N2CCC(N3CCN(C)CC3)CC2)c(C)cc1Nc1ncc(Cl)c(Nc2ccc3nccnc3c2N(C)S(C)(=O)=O)n1" ?
≤ 0.05 µM

May I ask what IC50 has been recorded for "COc1cc(N2CCC(N3CCN(C)CC3)CC2)ccc1Nc1ncc(F)c(Nc2ccc3nccnc3c2N(C)S(C)(=O)=O)n1" ?
0.05 to 0.5 µM

May I ask what IC50 has been recorded for COc1cc(N2CCC(N(C)C)C2)c(C)cc1Nc1ncc(Cl)c(Nc2ccc3nccnc3c2N(C2CC2)S(C)(=O)=O)n1 (stereo not shown) ?
≤ 0.05 µM

May I ask what IC50 has been recorded for "CN1CCN(c2ccc(Nc3ncc(Br)c(Nc4ccc5nccnc5c4N(C)S(C)(=O)=O)n3)cn2)CC1" ?
≤ 0.05 µM

May I ask what IC50 has been recorded for "CCc1cc(Nc2ncc(Cl)c(Nc3ccc4nccnc4c3N(C)S(=O)(=O)C(C)C)n2)c(OC)cc1N1CCN(C)CC1" ?
≤ 0.05 µM

Measured values drawn from patent US20230310428A1 for this set.
